method_description: in vitro
reported_conditions: African green monkey
measure: CC50 at 3 days

                                   molecule  observed_result
0  COc1cc(NC(C(=O)N2CCc3cc(OC)c(C(F)(F)F)cc32)c2ccc(Cl)cc2)cc(OCCC(C)C(=O)O)c1 (single isomer, unassigned) [Compound 20C]        > 1000 nM
1  COc1cc(NC(C(=O)N2CCc3ccc(OC(F)(F)F)cc32)c2ccc(Cl)cc2)cc(OCCC(C)(C)C(=O)O)c1 (single isomer, unassigned) [Compound 2A]        > 2500 nM
2  COc1cc(NC(C(=O)N2CCc3ccc(OC(F)(F)F)cc32)c2ccc(Cl)cc2)cc(OCCCCC(=O)O)c1 (single isomer, unassigned) [Compound 13B]        > 2500 nM

* * *

method_description: in vitro
reported_conditions: African green monkey
measure: CC50 (µM)

In [3]: df
Out[3]:
                                   compound  measure  unit_abbrev  observed_result
0  COc1cc(NC(C(=O)N2CCc3cc(OC)c(C(F)(F)F)cc32)c2ccc(Cl)cc2)cc(OCCC(C)(C)C(=O)O)c1 (racemic) [Compound 21]     CC50           µM               15
1  COc1cc(COCCC(=O)O)cc(NC(C(=O)N2CCc3ccc(OC(F)(F)F)cc32)c2ccc(Cl)cc2)c1 (racemic)     CC50           µM               16
2  COc1cc(NC(C(=O)N2CCc3ccc(OC(F)(F)F)cc32)c2ccc(Cl)cc2)cc(OCCC2(C(=O)O)CC2)c1 (racemic)     CC50           µM               10

* * *

Tested on: DENV-3 strain H87
method_description: Tetravalent RT-qPCR assay, serotype 3
Type: cell-based, Dengue virus
reported_conditions: RT-qPCR serotype 3 H87, Vero cells
pEC50: −log10 of the molar value.
measure: pEC50

In [3]: df
Out[3]:
                                    molecule  measure  observed_result
 0  COc1cc(NC(C(=O)N2CCc3cc(F)c(OC(F)(F)F)cc32)c2ccc(Cl)cc2)cc(OCC2CC(C(=O)O)C2)c1 (stereo not drawn) [Compound 31A]    pEC50             8.82
 1  COc1cc(NC(C(=O)N2CCc3ccc(OC(F)(F)F)cc32)c2ccc(Cl)cc2)cc(OC2CC(C(=O)O)C2)c1 (stereo not drawn) [Compound 8B]    pEC50             9.80
 2  COc1cc(NC(C(=O)N2CCc3cc(OC)c(C(F)(F)F)cc32)c2ccc(Cl)cc2)cc(OCC2CC(C(=O)O)C2)c1 (stereo not drawn) [Compound 25B]    pEC50             8.20
 3  COc1cc(NC(C(=O)N2CCc3cc(OC)c(C(F)(F)F)cc32)c2ccc(Cl)cc2)cc(OCC2CC2C(=O)O)c1 (stereo not drawn) [Compound 22BB]    pEC50             8.05
 4  COc1cc(NC2CC(C(=O)O)C2)cc(NC(C(=O)N2CCc3ccc(OC(F)(F)F)cc32)c2ccc(Cl)cc2)c1 (single isomer, unassigned) [Compound 33D]    pEC50             8.64
 5  COc1cc(NC(C(=O)N2CCc3cc(OC)c(C(F)(F)F)cc32)c2ccc(Cl)cc2)cc(OCC2CC2C(=O)O)c1 (stereo not drawn) [Compound 22AB]    pEC50             9.31
 6  COc1cc(NC(C(=O)N2CCc3ccc(OC(F)(F)F)cc32)c2ccc(Cl)cc2)cc(OCC(C)CC(=O)O)c1 (single isomer, unassigned) [Compound 4D]    pEC50             8.64
 7  COc1cc(NC2CC(C(=O)O)C2)cc(NC(C(=O)N2CCc3ccc(OC(F)(F)F)cc32)c2ccc(Cl)cc2)c1 (single isomer, unassigned) [Compound 33C]    pEC50             7.96
 8  COc1cc(NC(C(=O)N2CCc3ccc(OC(F)(F)F)cc32)c2ccc(Cl)cc2)cc(OCC2(F)CC2C(=O)O)c1 (stereo not drawn) [Compound 28BB]    pEC50             8.92
 9  COc1cc(NC(C(=O)N2CCc3ccc(OC(F)(F)F)cc32)c2ccc(Cl)cc2OC)cc(OCC2CC2C(=O)O)c1 (stereo not drawn) [Compound 19AB]    pEC50             9.85
10  COc1cc(NC(C(=O)N2CCc3ccc(OC(F)(F)F)cc32)c2ccc(Cl)cc2)cc(OCCC(C)C(=O)O)c1 (single isomer, unassigned)    pEC50             8.47
11  COc1cc(NC(C(=O)N2CCc3cc(OC)c(C(F)(F)F)cc32)c2ccc(Cl)cc2)cc(OCCC(C)C(=O)O)c1 (single isomer, unassigned) [Compound 20D]    pEC50             8.05
